# Read-out: ABC Transporter (ABCC2), ABCC2 (gene 1244)
# TEST SUMMARY: LTEA_HepaRG_ABCC2: Life Technologies and Expression Analysis (LTEA) Assay for ABC Transporter (ABCC2) using HepaRG (AID 2283464)
# TEST CONDITIONS: mRNA level, 48 h; actives raise or lower the signal
Active and inactive are the calls of the source. The calls were made as follows: active = hit-call score of the fitted dose curve at least 0.9, where 1 is the maximum; inactive = score below 0.9.
Result category, one only: active, inactive

- COMPOUND: "COP(=S)(OC)Oc1ccc([N+](=O)[O-])cc1"
  CLASS NAME: "inactive"

I'd appreciate the recorded outcome for ClC1C(Cl)C(Cl)C(Cl)C(Cl)C1Cl (configuration not stated) from this test.
active

Each compound tested received a call. Report the one for `Cc1[nH]c(=O)n(C(C)(C)C)c(=O)c1Cl` .
inactive

Hi team, can someone confirm the assay call for O=C(NC(=O)c1c(F)cccc1F)Nc1ccc(OC(F)(F)C(F)OC(F)(F)F)c(Cl)c1 (configuration not stated) ?
inactive

What call does the record list for `CN1CSC(=S)N(C)C1` ?
inactive
